assay: Evaluation of conversion rate to active form in buffer solution (Experimental Example 1); type: physicochemical; details: pH6.0, 3 hr, 37° C., 25 umol/L in buffer solution
Counter-ions that a name gives are not always drawn.
Listed below: Residual rate values for each entry.
reportedEndpoint: Residual rate (%)

[[record]]
compound = "CCNC(=O)Oc1cc(O)c2c(=O)cc(-c3ccccc3Cl)oc2c1[C@H]1CCN(C)C[C@H]1O [Comparative Example 1, reference compound]"
reportedendpoint = "Residual rate"
valuereported = 1.0

[[record]]
compound = "CCCN(C[C@H]1CCCCN1)C(=O)Oc1cc(O)c2c(=O)cc(-c3ccccc3Cl)oc2c1[C@H]1CCN(C)C[C@H]1O [Example 6]"
reportedendpoint = "Residual rate"
valuereported = 75.2

[[record]]
compound = "CCN(CC1CCCCN1)C(=O)Oc1cc(O)c2c(=O)cc(-c3ccccc3Cl)oc2c1[C@H]1CCN(C)C[C@H]1O (stereo partly drawn) [Example 7, dihydrochloride]"
reportedendpoint = "Residual rate"
valuereported = 83.4


---

experiment: Evaluation of conversion rate to active form in buffer solution (Experimental Example 1); format: physicochemical; settings: pH6.5, 1 hr, 37° C., 25 umol/L in buffer solution
reportedEndpoint: Production rate of Alvocidib (%)

[[record]]
compound = "CCN(C[C@H]1CCCCN1)C(=O)Oc1cc(O)c2c(=O)cc(-c3ccccc3Cl)oc2c1[C@H]1CCN(C)C[C@H]1O"
reportedendpoint = "Production rate of Alvocidib"
valuereported = 15.1

[[record]]
compound = "CN1CC[C@H](c2c(OC(=O)N(CCC(F)(F)F)CC3CCCCN3)cc(O)c3c(=O)cc(-c4ccccc4Cl)oc23)[C@H](O)C1 (stereo partly shown)"
reportedendpoint = "Production rate of Alvocidib"
valuereported = 47.7

[[record]]
compound = "CCCN(C[C@@H]1CCCCN1)C(=O)Oc1cc(O)c2c(=O)cc(-c3ccccc3Cl)oc2c1[C@H]1CCN(C)C[C@H]1O"
reportedendpoint = "Production rate of Alvocidib"
valuereported = 17.1

[[record]]
compound = "CCCN(C[C@H]1CCCCN1)C(=O)Oc1cc(O)c2c(=O)cc(-c3ccccc3Cl)oc2c1[C@H]1CCN(C)C[C@H]1O"
reportedendpoint = "Production rate of Alvocidib"
valuereported = 18.6

[[record]]
compound = "CCN(C[C@@H]1CCCCN1)C(=O)Oc1cc(O)c2c(=O)cc(-c3ccccc3Cl)oc2c1[C@H]1CCN(C)C[C@H]1O [Example 1, ditrifluoroacetate]"
reportedendpoint = "Production rate of Alvocidib"
valuereported = 16.4

[[record]]
compound = "CCCN(CC1CCCCN1)C(=O)Oc1cc(O)c2c(=O)cc(-c3ccccc3Cl)oc2c1[C@H]1CCN(C)C[C@H]1O (stereo partly shown)"
reportedendpoint = "Production rate of Alvocidib"
valuereported = 20.2

[[record]]
compound = "CN1CC[C@H](c2c(OC(=O)N(C)C[C@H]3CCCCN3)cc(O)c3c(=O)cc(-c4ccccc4Cl)oc23)[C@H](O)C1"
reportedendpoint = "Production rate of Alvocidib"
valuereported = 15.1


---

test: Evaluation of conversion rate to active form in human plasma (Experimental Example 3); assay type: in vitro ADME; conditions: human, 60 min, 0.2 μmol/L
reportedEndpoint: Production rate (%) of Alvocidib

[[record]]
compound = "CN1CC[C@H](c2c(O)cc(O)c3c(=O)cc(-c4ccccc4Cl)oc23)[C@H](OC(=O)[C@@H](N)CO)C1 [Comparative Example 9, reference compound]"
valuereported = "18%"

[[record]]
compound = "CCNC(=O)O[C@@H]1CN(C)CC[C@@H]1c1c(O)cc(O)c2c(=O)cc(-c3ccccc3Cl)oc12 [Comparative Example 4, reference compound]"
valuereported = "3%"

[[record]]
compound = "CN1CC[C@H](c2c(O)cc(O)c3c(=O)cc(-c4ccccc4Cl)oc23)[C@H](OC(=O)CN)C1 [Comparative Example 8, reference compound]"
valuereported = "12%"

[[record]]
compound = "CCOC(=O)O[C@@H]1CN(C)CC[C@@H]1c1c(O)cc(O)c2c(=O)cc(-c3ccccc3Cl)oc12 [Comparative Example 3, reference compound]"
valuereported = "1%"

[[record]]
compound = "C[C@H](N)C(=O)O[C@@H]1CN(C)CC[C@@H]1c1c(O)cc(O)c2c(=O)cc(-c3ccccc3Cl)oc12 [Comparative Example 7, reference compound]"
valuereported = "26%"

[[record]]
compound = "CC(C)[C@H](N)C(=O)O[C@@H]1CN(C)CC[C@@H]1c1c(O)cc(O)c2c(=O)cc(-c3ccccc3Cl)oc12 [Comparative Example 10, reference compound]"
valuereported = "2%"

[[record]]
compound = "CN1CC[C@H](c2c(O)cc(O)c3c(=O)cc(-c4ccccc4Cl)oc23)[C@H](OC(=O)c2ccccc2F)C1"
valuereported = "23%"

[[record]]
compound = "CCC(=O)O[C@@H]1CN(C)CC[C@@H]1c1c(O)cc(O)c2c(=O)cc(-c3ccccc3Cl)oc12"
valuereported = "12%"


---

test: Evaluation of conversion rate to active form in buffer solution (Experimental Example 1); assay type: physicochemical; conditions: pH7.4, 3 hr, 37° C., 25 umol/L in buffer solution
Parameter threshold = 90%. Response is 1 when Production rate of Alvocidib meets or exceeds it, else 0.

[[record]]
compound = "CCNC(=O)Oc1cc(O)c2c(=O)cc(-c3ccccc3Cl)oc2c1[C@H]1CCN(C)C[C@H]1O [Comparative Example 1, reference compound]"
classification = 1

[[record]]
compound = "CCN(CCC1CCCCN1)C(=O)Oc1cc(O)c2c(=O)cc(-c3ccccc3Cl)oc2c1[C@H]1CCN(C)C[C@H]1O (stereo partly drawn)"
classification = 0

[[record]]
compound = "CCCN(CC1CCCCN1)C(=O)Oc1cc(O)c2c(=O)cc(-c3ccccc3Cl)oc2c1[C@H]1CCN(C)C[C@H]1O (stereo partly drawn)"
classification = 1

[[record]]
compound = "CCCN(C[C@@H]1CCCCN1)C(=O)Oc1cc(O)c2c(=O)cc(-c3ccccc3Cl)oc2c1[C@H]1CCN(C)C[C@H]1O"
classification = 1

[[record]]
compound = "CN1CC[C@H](c2c(OC(=O)N(C)C[C@H]3CCCCN3)cc(O)c3c(=O)cc(-c4ccccc4Cl)oc23)[C@H](O)C1"
classification = 0


---

experiment: Evaluation of conversion rate to active form in buffer solution (Experimental Example 1); format: physicochemical; settings: pH6.5, 3 hr
// bucketize Residual rate: c1: < 7%; c2: ≥ 7% and < 80%; c3: ≥ 80%

[[record]]
compound = "C[C@H](N)C(=O)O[C@@H]1CN(C)CC[C@@H]1c1c(O)cc(O)c2c(=O)cc(-c3ccccc3Cl)oc12 [Comparative Example 7, reference compound]"
classification = "c1"

[[record]]
compound = "CN1CC[C@H](c2c(OC(=O)N(C)CCN)cc(O)c3c(=O)cc(-c4ccccc4Cl)oc23)[C@H](O)C1 [Comparative Example 13, reference compound]"
classification = "c1"

[[record]]
compound = "CN1CC[C@H](c2c(O)cc(O)c3c(=O)cc(-c4ccccc4Cl)oc23)[C@H](OC(=O)CN)C1 [Comparative Example 8, reference compound]"
classification = "c2"

[[record]]
compound = "CNC(=O)Oc1cc(O)c2c(=O)cc(-c3ccccc3Cl)oc2c1[C@H]1CCN(C)C[C@H]1O [Comparative Example 2, reference compound]"
classification = "c1"

[[record]]
compound = "CNCCN(C)C(=O)Oc1cc(O)c2c(=O)cc(-c3ccccc3Cl)oc2c1[C@H]1CCN(C)C[C@H]1O [Comparative Example 14, reference compound]"
classification = "c1"

[[record]]
compound = "CNC(=O)O[C@@H]1CN(C)CC[C@@H]1c1c(O)cc(O)c2c(=O)cc(-c3ccccc3Cl)oc12 [Comparative Example 5, reference compound]"
classification = "c3"

[[record]]
compound = "CN1CC[C@H](c2c(O)cc(O)c3c(=O)cc(-c4ccccc4Cl)oc23)[C@H](OC(=O)[C@@H](N)CO)C1 [Comparative Example 9, reference compound]"
classification = "c2"

[[record]]
compound = "CC(C)[C@H](N)C(=O)O[C@@H]1CN(C)CC[C@@H]1c1c(O)cc(O)c2c(=O)cc(-c3ccccc3Cl)oc12 [Comparative Example 10, reference compound]"
classification = "c2"

[[record]]
compound = "CCNC(=O)O[C@@H]1CN(C)CC[C@@H]1c1c(O)cc(O)c2c(=O)cc(-c3ccccc3Cl)oc12 [Comparative Example 4, reference compound]"
classification = "c3"

[[record]]
compound = "CCOC(=O)O[C@@H]1CN(C)CC[C@@H]1c1c(O)cc(O)c2c(=O)cc(-c3ccccc3Cl)oc12 [Comparative Example 3, reference compound]"
classification = "c3"


---

experiment: Evaluation of conversion rate to active form in buffer solution (Experimental Example 1); format: physicochemical; settings: pH5.5, 3 hr
reportedEndpoint: Production rate of Alvocidib

[[record]]
compound = "CC(C)[C@H](N)C(=O)O[C@@H]1CN(C)CC[C@@H]1c1c(O)cc(O)c2c(=O)cc(-c3ccccc3Cl)oc12 [Comparative Example 10, reference compound]"
reportedendpoint = "Production rate of Alvocidib"
valuereported = "6.8%"

[[record]]
compound = "CNCCN(C)C(=O)Oc1cc(O)c2c(=O)cc(-c3ccccc3Cl)oc2c1[C@H]1CCN(C)C[C@H]1O [Comparative Example 14, reference compound]"
reportedendpoint = "Production rate of Alvocidib"
valuereported = "93.9%"

[[record]]
compound = "CCNC(=O)O[C@@H]1CN(C)CC[C@@H]1c1c(O)cc(O)c2c(=O)cc(-c3ccccc3Cl)oc12 [Comparative Example 4, reference compound]"
reportedendpoint = "Production rate of Alvocidib"
valuereported = "1.8%"

[[record]]
compound = "CNC(=O)Oc1cc(O)c2c(=O)cc(-c3ccccc3Cl)oc2c1[C@H]1CCN(C)C[C@H]1O [Comparative Example 2, reference compound]"
reportedendpoint = "Production rate of Alvocidib"
valuereported = "98.6%"

[[record]]
compound = "CN1CC[C@H](c2c(O)cc(O)c3c(=O)cc(-c4ccccc4Cl)oc23)[C@H](OC(=O)CN)C1 [Comparative Example 8, reference compound]"
reportedendpoint = "Production rate of Alvocidib"
valuereported = "32.0%"

[[record]]
compound = "CN1CC[C@H](c2c(OC(=O)N(C)CCN)cc(O)c3c(=O)cc(-c4ccccc4Cl)oc23)[C@H](O)C1 [Comparative Example 13, reference compound]"
reportedendpoint = "Production rate of Alvocidib"
valuereported = "32.2%"


Data origin, for the record: patent US12617779B2
